Values were extracted from ChEMBL document CHEMBL4689842.

System: U2OS
protocol: Multiplex assay against U2OS
Assay type: toxicity, cell-based
test_parameters: human, 12 h, 1 µM, compound concentration 1 uM, replicate 1
# if measured Population Fragmented Nuclei (%) < 8%: T  # else: F

q: Regarding O=C(Nc1ccc(-n2nc(-c3cccnc3)cc2C(F)(F)F)cn1)c1ccc(-c2ccccc2)c(F)c1 [BI 2049] , kindly confirm whether its Population Fragmented Nuclei (%) is beneath 8%.
a: F

q: Regarding O=C(Nc1ccc(-c2ccnc(Nc3ccc(N4CCOCC4)cc3)n2)cc1)[C@@H]1CCCN1 , kindly confirm whether its Population Fragmented Nuclei (%) is beneath 8%.
a: F

q: Regarding CCN1CCN(Cc2ccc(Nc3ncc(F)c(-c4cc(F)c5nc(C)n(C(C)C)c5c4)n3)nc2)CC1.CS(=O)(=O)O , kindly confirm whether its Population Fragmented Nuclei (%) is beneath 8%.
a: F

q: Regarding CCn1c(=O)c(-c2ccc(-c3cncs3)cc2Cl)cc2cnc(Nc3ccc(N4CCN(C)CC4)cc3)nc21 , kindly confirm whether its Population Fragmented Nuclei (%) is beneath 8%.
a: F

q: Regarding CCCS(=O)(=O)Nc1ccc(F)c(C(=O)c2c[nH]c3ncc(Cl)cc23)c1F [PLX-4720] , kindly confirm whether its Population Fragmented Nuclei (%) is beneath 8%.
a: T

----------
Test system: Fibroblast
protocol: Multiplex assay against human fibroblast
Format: toxicity, cell-based
test_parameters: 24 h, 10 µM, compound concentration 10 uM, replicate 1
assay_metric: Population Membrane Permeable-Phenotype (%)
Express the result in % but write the number alone.

q: For COC(=N)c1nc2ccc3ncnc(Nc4ccc(OC)cc4F)c3c2s1 , write its Population Membrane Permeable-Phenotype (%).
a: 5

q: For O=C(Nc1ccc(-c2ccnc(Nc3ccc(N4CCOCC4)cc3)n2)cc1)[C@@H]1CCCN1 , write its Population Membrane Permeable-Phenotype (%).
a: 16

q: For O=C1N/C(=N/c2ccccc2F)S/C1=C\c1ccc(C(=O)O)cc1 , write its Population Membrane Permeable-Phenotype (%).
a: 29

q: For COCC(=O)NC/C=C/c1ccc2ncnc(Nc3ccc(Oc4ccc(C)nc4)c(C)c3)c2c1 , write its Population Membrane Permeable-Phenotype (%).
a: 16

q: For CN(C)C(=O)C(CCN1CCC(O)(c2ccc(Cl)cc2)CC1)(c1ccccc1)c1ccccc1.Cl [LOPERAMIDE HYDROCHLORIDE] , write its Population Membrane Permeable-Phenotype (%).
a: 7

----------
System: U2OS
protocol: Incucyte cell viability with U2OS; also: filed as whole numbers so only -1 and 0 and 1 occur
Type: toxicity, cell-based
test_parameters: human, 18 h, 10 µM, compound concentration 10 uM, replicate number 1, timepoint 18 hours
Would you kindly list Growth Rate for each of these compounds?

q: For CN(C)C(=O)C(CCN1CCC(O)(c2ccc(Cl)cc2)CC1)(c1ccccc1)c1ccccc1.Cl [LOPERAMIDE HYDROCHLORIDE] , write its Growth Rate.
a: 0

q: For COC(=N)c1nc2ccc3ncnc(Nc4ccc(OC)cc4F)c3c2s1 , write its Growth Rate.
a: 0

q: For C[C@@H]1CN(c2cc(-c3n[nH]c4ccc(OC5(C)CC5)cc34)ncn2)C[C@H](C)O1 , write its Growth Rate.
a: 1

q: For COc1cc(N2CCC(N3CCN(C)CC3)CC2)ccc1Nc1ncc(Cl)c(Nc2ccccc2P(C)(C)=O)n1 , write its Growth Rate.
a: 0

q: For C[C@H]1Oc2cc(cnc2N)-c2c(nn(C)c2C#N)CN(C)C(=O)c2ccc(F)cc21 , write its Growth Rate.
a: 1

q: For Cc1cc(C)c(S(=O)(=O)N(Cc2ccc(-c3cccc(S(C)(=O)=O)c3)cc2)Cc2ccc(C(F)(F)F)o2)c(C)c1 , write its Growth Rate.
a: 1

q: For OCCn1cc(-c2cnc3nnn(Cc4ccc5ncccc5c4)c3n2)cn1 , write its Growth Rate.
a: 1

q: For O=c1ccn([C@@H]2O[C@H](COP(=O)([O-])OP(=O)([O-])O)[C@@H](O)[C@H]2O)c(=O)[nH]1.[Na+].[Na+] , write its Growth Rate.
a: 0

q: For CNc1cc(Oc2cc(C(=O)Nc3cc(N4CCN(C)CC4)cc(C(F)(F)F)c3)ccc2C)ncn1 , write its Growth Rate.
a: 0

q: For CN(C)C(=O)c1cc2cnc(Nc3ccc(N4CCNCC4)cn3)nc2n1C1CCCC1 , write its Growth Rate.
a: 0

q: For FC(F)(F)c1cccc(-c2noc(-c3cc(-c4ccccc4)c(C(F)(F)F)s3)n2)c1 , write its Growth Rate.
a: 1

q: For Cc1ccc2nc(NCCN)c3ncc(C)n3c2c1.O=C(O)C(F)(F)F.O=C(O)C(F)(F)F , write its Growth Rate.
a: 0

q: For Cl.O=C(O)Cc1cccc(OCCCN(Cc2cccc(C(F)(F)F)c2Cl)CC(c2ccccc2)c2ccccc2)c1 , write its Growth Rate.
a: 0

q: For COc1ccc(S(=O)(=O)N(CCO)c2ccccc2CN(C)C/C=C/c2ccc(Cl)cc2)cc1.O=P(O)(O)O , write its Growth Rate.
a: 0

q: For Cl.O=C([C@@H](Cc1cccc(C(F)(F)F)c1)NS(=O)(=O)c1cc(F)c2c(c1)CCNC2)N1CCCC1 , write its Growth Rate.
a: 0

q: For C=C1/C(=C\C=C2/CCC[C@]3(C)[C@@H]([C@H](C)/C=C/[C@H](C)C(C)C)CC[C@@H]23)C[C@@H](O)C[C@@H]1O , write its Growth Rate.
a: 1

q: For CC(=O)c1c(NS(C)(=O)=O)c2cc(-c3ccc(Cl)cc3)c(-c3ccc(Cl)cc3Cl)nc2n(C)c1=O , write its Growth Rate.
a: 1

q: For CN1CCN(c2cnc3c(C4CCN(C(=O)c5ccc(OC(F)(F)F)cc5N)CC4)ncnc3c2)CC1 , write its Growth Rate.
a: 0

q: For CCc1cccc(CC)c1NC(=O)c1nn(C)c2c1CCc1cnc(Nc3ccc(N4CCN(C)CC4)cc3OC)nc1-2 , write its Growth Rate.
a: 0

q: For CCCCCCCCCCCCCCCCOC[C@H](COP(=O)([O-])OCC[N+](C)(C)C)OC(C)=O , write its Growth Rate.
a: 0

q: For COc1cc2c(CCNC(C)=O)c[nH]c2cc1Cl , write its Growth Rate.
a: 0

q: For Cc1ccc(C(=O)Nc2cccc(C(F)(F)F)c2)cc1Nc1nc(-c2cccnc2)nc2c1cnn2C , write its Growth Rate.
a: 0

q: For CC1(C)C(=O)C(C)(C)c2cc(C(=O)Nc3ccc(C(=O)O)cc3)ccc21 , write its Growth Rate.
a: 1

q: For CCC(=N\O)/C(C)=C/c1ccc(F)c(C)c1 , write its Growth Rate.
a: 0

q: For CS(=O)(=O)NCC[C@H](NC(=O)c1cncc2c1cnn2-c1ccc(F)cc1)c1ccnc(S(C)(=O)=O)c1 , write its Growth Rate.
a: 1

q: For CN1C2CCC1CC(OC(c1ccc(F)cc1)c1ccc(F)cc1)C2.Cl (centres undefined) , write its Growth Rate.
a: 0

q: For O=C(NOCC1CC1)c1ccc(F)c(F)c1Nc1ccc(I)cc1Cl , write its Growth Rate.
a: 0

q: For O=C(Nc1nc2cccc(-c3ccc(CN4CCS(=O)(=O)CC4)cc3)n2n1)C1CC1 , write its Growth Rate.
a: 0

q: For O=C1NC(c2ccccn2)Sc2ccccc21 (centres undefined) , write its Growth Rate.
a: 0

q: For C[C@@H](c1cccc(C#N)c1)n1cc(Cl)cc(C(N)=O)c1=N.Cl , write its Growth Rate.
a: 1

q: For CCCCN(CCCC)C(=O)CN1C[C@H](c2cc(OC)c3c(c2)OCO3)[C@@H](C(=O)O)[C@@H]1CC(C)(C)CCC.Cc1ccc(S(=O)(=O)O)cc1 , write its Growth Rate.
a: 0

q: For COc1ccnc(N2CCC3(CCCN(Cc4c[nH]c5ccccc45)C3=O)CC2)n1 , write its Growth Rate.
a: 1

q: For O=C1N/C(=N/c2ccccc2F)S/C1=C\c1ccc(C(=O)O)cc1 , write its Growth Rate.
a: 1

q: For Cc1nnn(-c2ccc(-c3ccc(C4(C(=O)O)CC4)cc3)cc2)c1NC(=O)O[C@H](C)c1ccccc1 , write its Growth Rate.
a: 1

----------
Would you kindly list Population Membrane Permeable-Phenotype (%) for each of these compounds?
Tested on: HEK-293T
protocol: Multiplex assay against HEK293T
Type: toxicity, cell-based
test_parameters: human, 24 h, 1 µM, compound concentration 1 uM, replicate 2
Express the result in % but write the number alone.

q: For O=C(Cc1ccc(-c2ccc(OCCN3CCOCC3)cc2)cn1)NCc1ccccc1 [TIRBANIBULIN] , write its Population Membrane Permeable-Phenotype (%).
a: 6

q: For CCn1c(=O)c(-c2ccc(-c3cncs3)cc2Cl)cc2cnc(Nc3ccc(N4CCN(C)CC4)cc3)nc21 , write its Population Membrane Permeable-Phenotype (%).
a: 8

q: For O=C1N/C(=N/c2ccccc2F)S/C1=C\c1ccc(C(=O)O)cc1 , write its Population Membrane Permeable-Phenotype (%).
a: 12

q: For CNc1cc(Oc2cc(C(=O)Nc3cc(N4CCN(C)CC4)cc(C(F)(F)F)c3)ccc2C)ncn1 , write its Population Membrane Permeable-Phenotype (%).
a: 1

q: For CCNc1cc(N[C@H]2CC[C@H](O)CC2)nc(Nc2ccc3c(ccn3Cc3ccccc3)c2)n1 , write its Population Membrane Permeable-Phenotype (%).
a: 12

q: For O=C(Nc1ccc(-n2nc(-c3cccnc3)cc2C(F)(F)F)cn1)c1ccc(-c2ccccc2)c(F)c1 [BI 2049] , write its Population Membrane Permeable-Phenotype (%).
a: 3

q: For C=CCn1c(=O)c2cnc(Nc3ccc(N4CCN(C)CC4)cc3)nc2n1-c1cccc(C(C)(C)O)n1 [ADAVOSERTIB] , write its Population Membrane Permeable-Phenotype (%).
a: 5

q: For CN(C)C(=O)C(CCN1CCC(O)(c2ccc(Cl)cc2)CC1)(c1ccccc1)c1ccccc1.Cl [LOPERAMIDE HYDROCHLORIDE] , write its Population Membrane Permeable-Phenotype (%).
a: 3
